# Test system: OVCAR-5 ovarian
# method: NCI tumour cell line growth inhibition, 48 h
metric: GI50

Some entries whose results are on file:
For O=C(Nc1ccc(-n2ccc3c(NC(=O)c4ccccc4)ncnc32)cc1)Nc1ccc(Cl)c(C(F)(F)F)c1 , what is its reported GI50?
1660 nM

For COc1ccc(-c2c(-c3cc4c(c(OC)c3OC)OCO4)noc2N)cc1 , what is its reported GI50?
2430 nM

For O=C(/C=C/c1ccccc1)Nc1ncc(Cc2ccccc2)s1 , what is its reported GI50?
469 nM

For C[C@]12CC/C(=N\O)C[C@@H]1CC[C@@H]1[C@@H]2CC[C@]2(C)/C(=N/O)CC[C@@H]12 , what is its reported GI50?
46100 nM

More entries:
For [O-]c1ccccc1[C-]=Nc1ccccc1O.[O-]c1ccccc1[C-]=Nc1ccccc1O.[O]=[U]=[O] , what is its reported GI50?
21000 nM

For COc1ccc(/C=C(/C(=O)N2CCN(c3ccc(C)cc3)CC2)c2cc(OC)c(OC)c(OC)c2)cc1N , what is its reported GI50?
715 nM

For COc1cc(/C=C/C(=O)c2ccc(F)cc2)ccc1OCCCCOc1cc2c(cc1OC)C(=O)N1CCCC1C=N2 (configuration not stated) , what is its reported GI50?
3850 nM

For C/C(=N\NC(=O)c1cccc(S(=O)(=O)N2CCN(C)CC2)c1)c1cc(Cl)ccc1O , what is its reported GI50?
1860 nM

For Cc1c(C)n(CC(O)CNC2CCCCC2C)c2ccccc12 (configuration not stated) , what is its reported GI50?
12900 nM

For CC(C)C[C@H](NC(=O)[C@H](Cc1ccccc1)NC(=O)c1cnccn1)B(O)O , what is its reported GI50?
2.6 nM

For CCCCCCCC(=O)SCC/C=C/[C@@H]1CC(=O)NCc2cccc(n2)C2=N[C@@](C)(CS2)C(=O)N[C@@H](C(C)C)C(=O)O1 , what is its reported GI50?
25.4 nM

For COc1ccc(C(=O)OC2C(OC3C(O)COC(O[C@H]4C[C@H]5[C@@H]6CC=C7C[C@@H](O)CC[C@]7(C)[C@H]6CC[C@]5(C)[C@H]4[C@H](C)C(=O)CCC(C)C)C3OC(=O)C(C)C)OCC(O)C2O)cc1 (some centres not stated) , what is its reported GI50?
204 nM

For COc1ccc2c(c1)O/C(=C\c1ccc([N+](=O)[O-])o1)C2=O , what is its reported GI50?
2270 nM

For COc1ccc2nc(-c3ccc(Cl)cc3)cc(-c3nnc(SCC(=O)Nc4ccc(/C(C)=N\O)cc4)o3)c2c1 , what is its reported GI50?
2060 nM

For OCCNC(=S)Nc1ccc(-c2nc(N3C[C@H]4CC[C@@H](C3)O4)c3cccn3n2)cc1 , what is its reported GI50?
37.9 nM

For O=C(NCCN1CCOCC1)Nc1nc2ccc(Sc3nnc4ccc(-c5ccc(F)cc5)nn34)cc2s1 , what is its reported GI50?
> 39000 nM

For COc1ccccc1CN=C1NC(=O)/C(=C/c2ccc3ncccc3c2)S1 , what is its reported GI50?
16300 nM

Attribution: PubChem BioAssay (NCI)
